Here we list compounds with their recorded pEC50 when tested on Androgen receptor (Homo sapiens, UniProt P10275).
Note on units: pEC50 is unitless, being -log10 of a concentration expressed in mol/L.

Field: example entries. Status: answers known.
Lookup: Quickly give me recorded pEC50 for CCC1CCN(C)c2cc3[nH]c(=O)cc(C(F)(F)F)c3cc21 (stereo unspecified)
Found: 6.80

Lookup: Output pEC50 of CC1c2cc3c(C(F)(F)F)cc(O)nc3cc2NC[C@@H]1C (stereo partly specified)
Found: 8.00

Lookup: Retrieve pEC50 measured for "C[C@@H]1CNc2cc3[nH]c(=O)cc(C(F)(F)F)c3cc2[C@@H]1CCC(F)(F)F" and print it.
Found: 7.09

Lookup: Given CCCC1CCNc2cc3nc(O)cc(C(F)(F)F)c3cc21 (stereo unspecified) , respond with its pEC50.
Found: 7.72

Lookup: Give the reported pEC50 for this compound. CC1c2cc3c(C(F)(F)F)cc(O)nc3cc2NC[C@H]1C (stereo partly specified)
Found: 7.66

Next:
Lookup: Read off the recorded pEC50 for CC(C)CC1CCNc2cc3nc(O)cc(C(F)(F)F)c3cc21 (stereo unspecified)
Found: 7.60

Lookup: Consider the compound CC(C)C1CCNc2cc3[nH]c(=O)cc(C(F)(F)F)c3cc21 (stereo unspecified) . State its measured pEC50.
Found: 8.52

Lookup: # return recorded pEC50 for input "Oc1cc(C(F)(F)F)c2cc3c(cc2n1)NCCC3"
Found: 6.50

Lookup: Give the measured pEC50 for "O=c1cc(C(F)(F)F)c2cc3c(cc2[nH]1)NC[C@@H]1CCC[C@H]31"
Found: 8.05

----------
Entries and their measured Ki follow.
Biological target: UniProt:P10275
Sequence (P10275 whole entry): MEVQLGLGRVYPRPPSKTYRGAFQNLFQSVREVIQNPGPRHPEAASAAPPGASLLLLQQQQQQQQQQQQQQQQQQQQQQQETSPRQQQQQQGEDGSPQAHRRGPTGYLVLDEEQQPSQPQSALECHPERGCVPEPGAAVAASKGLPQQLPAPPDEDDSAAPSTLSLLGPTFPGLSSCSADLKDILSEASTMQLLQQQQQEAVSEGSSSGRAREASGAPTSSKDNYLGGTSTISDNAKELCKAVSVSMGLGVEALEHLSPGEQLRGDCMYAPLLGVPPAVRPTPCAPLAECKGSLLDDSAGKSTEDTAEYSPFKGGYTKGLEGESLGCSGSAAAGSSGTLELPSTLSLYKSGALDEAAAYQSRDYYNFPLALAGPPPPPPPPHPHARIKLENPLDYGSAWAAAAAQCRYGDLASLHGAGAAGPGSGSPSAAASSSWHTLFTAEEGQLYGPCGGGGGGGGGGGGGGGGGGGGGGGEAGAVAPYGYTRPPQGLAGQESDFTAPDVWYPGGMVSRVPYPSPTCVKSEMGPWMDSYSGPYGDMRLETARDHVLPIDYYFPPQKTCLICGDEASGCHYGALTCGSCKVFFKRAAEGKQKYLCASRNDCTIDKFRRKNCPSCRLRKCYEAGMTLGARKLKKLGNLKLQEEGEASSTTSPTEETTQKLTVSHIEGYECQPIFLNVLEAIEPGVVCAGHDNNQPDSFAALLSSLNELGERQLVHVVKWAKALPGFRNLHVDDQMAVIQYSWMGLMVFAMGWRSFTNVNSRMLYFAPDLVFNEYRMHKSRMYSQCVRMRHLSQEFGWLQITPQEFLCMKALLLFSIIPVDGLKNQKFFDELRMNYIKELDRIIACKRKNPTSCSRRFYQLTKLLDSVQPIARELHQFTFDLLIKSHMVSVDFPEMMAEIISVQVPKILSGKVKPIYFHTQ

Some compounds with known Ki results, for comparison:
Lookup: Hello, please tell me recorded Ki for this one: CCC1CCN(C=O)c2cc3nc(O)cc(C(F)(F)F)c3cc21 (configuration not stated)
Found: > 1000 nM

Lookup: Quick one: give measured Ki for CCC1c2cc3c(C(F)(F)F)cc(=O)[nH]c3cc2NC[C@@H]1C (some centres not stated)
Found: 8 nM

Lookup: Provide only the value of recorded Ki for CC1CCNc2cc3nc(O)cc(C(F)(F)F)c3cc21 (configuration not stated)
Found: 9 nM

Lookup: Tell me measured Ki for "CC1(C)CCNc2cc3[nH]c(=O)cc(C(F)(F)F)c3cc21" please.
Found: 12 nM

Lookup: Indicate the recorded Ki value for this compound: "CCC1(CC)CCNc2cc3nc(O)cc(C(F)(F)F)c3cc21"
Found: 58 nM

***
Lookup: Give reported Ki value for CC1c2cc3c(C(F)(F)F)cc(O)nc3cc2NC[C@@H]1C (some centres not stated)
Found: 16 nM

Lookup: Indicate its recorded Ki; the compound in question is "Oc1cc(C(F)(F)F)c2cc3c(cc2n1)NC[C@@H]1CCCC[C@H]31"
Found: 2 nM

Lookup: Return Ki for the following compound: CCC1CCN(C)c2cc3c(cc21)c(C(F)(F)F)cc(=O)n3C (configuration not stated)
Found: 263 nM

----------
Target: UniProtKB P10275
Below, each entry is listed alongside its reported pKi.
When answering, recall that pKi equals minus log10 of the concentration in mol/L, and write that number alone.

Lookup: Complete the entry with pKi for "Oc1cc(C(F)(F)F)c2cc3c(cc2n1)NCCC3"
Found: 7.72

Lookup: Check the records and state pKi for CCC1CCNc2cc3c(cc21)c(C(F)(F)F)cc(=O)n3C (stereo not given)
Found: 8.05

Lookup: Return the recorded pKi value; entry: "Oc1cc(C(F)(F)F)c2cc3c(cc2n1)NC[C@H]1CCCC[C@H]31"
Found: 7.82

Lookup: Check the records and state pKi for CCCC1CCNc2cc3nc(O)cc(C(F)(F)F)c3cc21 (stereo not given)
Found: 7.54

Lookup: Fill in reported pKi for this entry: CC(C)C[C@H]1c2cc3c(C(F)(F)F)cc(=O)[nH]c3cc2NC[C@@H]1C (relative stereo)
Found: 7.14

Lookup: Please list pKi recorded for the compound C[C@H]1CNc2cc3nc(O)cc(C(F)(F)F)c3cc2C1CCC(F)(F)F (stereo not given in full)
Found: 8.70

Lookup: Identify measured pKi associated with CC(C)CC1CCNc2cc3nc(O)cc(C(F)(F)F)c3cc21 (stereo not given)
Found: 7.66

Lookup: # return recorded pKi for entry CC(C)C1CCNc2cc3[nH]c(=O)cc(C(F)(F)F)c3cc21 (stereo not given)
Found: 7.89

Lookup: For the compound "O=c1cc(C(F)(F)F)c2cc3c(cc2[nH]1)NC[C@@H]1CCC[C@H]31" , give its reported pKi.
Found: 8.10

----------
Parameter Ki, tested on Androgen receptor (Homo sapiens, UniProt P10275), listed per item.
Report the figure in nM without appending any unit label.

Lookup: Kindly indicate its recorded Ki. Item: CCC1CCN(C)c2cc3[nH]c(=O)cc(C(F)(F)F)c3cc21 (centres undefined)
Found: 630

Lookup: Entry CC[C@H]1c2cc3c(C(F)(F)F)cc(=O)[nH]c3cc2NC[C@H]1C (relative stereo) needs its Ki filled in; supply it.
Found: 27

Lookup: Recall and state the measured Ki for CC1c2cc3c(C(F)(F)F)cc(O)nc3cc2NC[C@H]1C (some centres undefined) .
Found: 8
